observable: melting point

Some solved cases for reference:
- compound: "COc1ccc2cc3c(N)nn(-c4ccccc4)c3nc2c1"
  melting point: "159 to 160 °C"
- compound: "COC(=O)CCC(=NOCc1ccc(OCc2nc(-c3ccco3)oc2C)c(OC)c1)c1ccccc1"
  melting point: "67 to 69 °C"
- compound: "COC(=O)C1(C)c2ccccc2Oc2ccccc21"
  melting point: "91 to 92 °C"
- compound: "COc1ccc2c(c1)C(=O)C(=CCC(=O)OC(C)(C)C)CC2"
  melting point: "76 °C"

Please look up its melting point: CCc1cccc2c1C(=O)N(Cn1nnn(-c3ccccc3)c1=S)S2(=O)=O
127 to 129 °C

Please look up its melting point: CN(C)C(=O)/C=C/CSc1nc(N)cc(Cl)n1
173 to 176 °C

Please look up its melting point: COc1ccc(C(=O)Nc2cccc(C(C)(C)CNC(C)=O)c2)cc1OC
132 to 134 °C

---

Reported melting point values are given for each entry in this list.

Some solved cases for reference:
- molecule: "COc1cc2c(c(Cl)c1Cl)C1=CC(=O)CCC1(CCCCl)C2 (stereo not given)"
  melting point: "183 to 185 °C"
- molecule: "CNc1ccc(C(=O)Nc2cccc(-c3nc(NC)nc4cc(OC)c(OC)cc34)c2)cn1"
  melting point: "193 to 195 °C"
- molecule: "COC(=O)C(C)(C)Cc1ccc2cc(CC(C)(C)C(=O)OC)ccc2c1"
  melting point: "108 to 110 °C"
- molecule: "CN(C)c1cccc(-c2nc3ncccc3o2)c1"
  melting point: "208 to 209 °C"
- molecule: "COCn1ccnc1C(O)(c1ccccc1)c1ccc(C(F)(F)F)cc1 (stereo not given)"
  melting point: "158 to 159 °C"
- molecule: "Cc1nc(N2CCCC(CCc3ccccc3)C2=O)sc1C(=O)NCc1ccccc1 (stereo not given)"
  melting point: "124 to 126 °C"

Switching to the query record.
Please look up its melting point: N#CC(=NOS(=O)(=O)c1ccc(O)cc1)c1ccccc1
148 °C

---

Reported melting point values are given for each entry in this list.

Some solved cases for reference:
- molecule: "N=C(NO)c1ccccc1-n1cnc2cnc3ccc(-c4ccccc4)cc3c21"
  melting point: "249 to 251 °C"
- molecule: "Cc1nn(C)c2c1c1oc(=O)c(Sc3ccccc3)c(O)c1c(=O)n2Cc1ccc(F)cc1"
  melting point: "159 to 160 °C"
- molecule: "COC(c1nnco1)c1ccccc1COc1ccc(Cl)cc1C (stereo not given)"
  melting point: "68 to 70 °C"
- molecule: "O=C1c2ccccc2C(=O)N1Cc1ccccc1-c1noc2ccccc12"
  melting point: "142 °C"

Switching to the query record.
Please look up its melting point: CCNc1ncc(Nc2ccc(Cl)cc2)nc1-n1nc(C)cc1C
122 to 124 °C

---

Reported melting point values are given for each entry in this list.

Please look up its melting point: CCOC(=O)CCNC(=O)c1cn2nc(Cl)ccc2n1
132 to 134 °C

Please look up its melting point: CCOC(=O)C(=CN(C)C)C(=O)Nc1ccc(Br)cc1C
88 to 90 °C

Please look up its melting point: O=C(c1ccc(F)cc1)C1CCN(CCCC2(c3ccc(F)cc3)OCCO2)CC1
62 to 64 °C

Please look up its melting point: CCCCCCCNC(=O)Oc1ccc2c(c1)c(C)cn2NCCCc1ccncc1F
90 to 93 °C

Please look up its melting point: CC(=O)Nc1nc(C)c(-c2ccc(S(C)(=O)=O)cc2)s1
251 to 253 °C

Please look up its melting point: CCOC(=O)NCCC12CC(c3ccccc31)c1ccccc12
122 to 123 °C

Please look up its melting point: O=C1CCC(CCc2ccc(-c3ccccc3)cc2)N1O (configuration not stated)
192 to 194 °C

Please look up its melting point: CC(CC(=O)O)C(=O)c1ccc(-n2ccc(=O)cc2)cc1 (configuration not stated)
250 to 252 °C

Please look up its melting point: Cc1nn(C)c2c1c(=O)n(-c1ccccc1)c1ncccc21
> 300 °C

---

Reported melting point values are given for each entry in this list.

Some solved cases for reference:
- compound: "Cc1cccc(C)c1N(CCn1ccnc1)C(=O)CCCc1cccnc1"
  endpoint-result: "104 to 106 °C"
- compound: "O=c1[nH]c2cc([N+](=O)[O-])cnc2n1-c1ccc2c(c1)OCO2"
  endpoint-result: "224 to 225 °C"
- compound: "CS(=O)c1ccc(-c2ccc(-c3ccc(F)cc3)s2)s1 (configuration not stated)"
  endpoint-result: "153 to 157 °C"
- compound: "CC(C)C(=O)n1cc(-c2ccc(Oc3ccccc3)cc2)c2c(N)ncnc21"
  endpoint-result: "160 to 161 °C"
- compound: "CCCC(=O)c1c[nH]c2ccc(OC)cc2c1=O"
  endpoint-result: "252 to 254 °C"
- compound: "CN(Cc1ccc(NC(=O)/C=C/c2ccc(-c3ccc(C(C)(C)C)cc3)s2)cc1)C1CCOCC1"
  endpoint-result: "216 to 220 °C"
- compound: "Cc1ccc(-c2cn(C)cc(-c3cccc(C(F)(F)F)c3)c2=O)cc1Br"
  endpoint-result: "158 to 161 °C"
- compound: "N#Cc1ccc2[nH]cc([C@H]3CC[C@@H](N4CC(Oc5cccc(F)c5)C4)CC3)c2c1"
  endpoint-result: "187 to 190 °C"

Please look up its melting point: N#Cc1c(N)sc(C=O)c1Sc1ccccc1
230 °C

Please look up its melting point: O=[N+]([O-])c1nccn1C1CCCCC1O (configuration not stated)
141 °C

Please look up its melting point: Clc1ccc2nc(-c3ccccc3)oc2n1
150 to 151 °C

Please look up its melting point: CCOC(=O)c1nnn[nH]1
86 to 90 °C

Please look up its melting point: O=c1[nH]c2ccc(-c3cccc([N+](=O)[O-])c3)cc2[nH]1
324 to 325 °C

Please look up its melting point: COC1N=C(c2ccccc2)c2cc(Cl)ccc2-n2nc(C(N)=O)nc21 (configuration not stated)
264 to 267 °C

Please look up its melting point: Nc1cc(Oc2ccc(-c3ccc(Oc4cc(N)cc(C(F)(F)F)c4)cc3)cc2)cc(C(F)(F)F)c1
130 to 133 °C

Please look up its melting point: CSc1c2c(nn1C)N(c1c(C)cc(C)cc1C)CCC2
90.3 to 91.7 °C

Please look up its melting point: O=C(Oc1cc[nH]c(=O)c1)c1ccc([N+](=O)[O-])cc1
255 to 256 °C

---

Reported melting point values are given for each entry in this list.

Some solved cases for reference:
- compound: "CCOC(=O)C1(NC(=O)OCc2ccccc2)CC(=O)NC1=O (stereo not given)"
  melting point: "105 to 106 °C"
- compound: "CCOC(=O)COc1ccc(C(=O)CN2CCN(c3ccncc3)CC2=O)cc1"
  melting point: "163 to 165 °C"
- compound: "COC(=O)Cc1cn(-c2ccccc2)nc1O"
  melting point: "144 to 145 °C"
- compound: "Nc1ncnc2c1c(-c1ccc(Oc3ccccc3)cc1)nn2C1CCOCC1"
  melting point: "187 to 188 °C"
- compound: "O=[N+]([O-])c1ccc(Oc2ccc(C(F)(F)F)cc2Cl)cc1C=NO"
  melting point: "111 to 115 °C"
- compound: "CCOC(=O)c1csc(C2CCC2)n1"
  melting point: "48 to 50 °C"
- compound: "CC1=NC(=Cc2ccc(F)cc2)C(=O)O1"
  melting point: "156 °C"
- compound: "COc1ccc(F)cc1C(C)(C)c1cc(F)ccc1O"
  melting point: "90 °C"
- compound: "C=COC(=O)C1=Cc2cc(Cl)cc(C=C)c2OC1C(F)(F)F (stereo not given)"
  melting point: "75.9 to 77.2 °C"
- compound: "O=C(O)c1cn(C2CC2)c2cc(N3CCNC(c4ccoc4)C3)c(F)cc2c1=O (stereo not given)"
  melting point: "202 to 204 °C"

Please look up its melting point: COc1cc(F)ccc1Nc1ccc2c(c1)OCc1cc([N+](=O)[O-])ccc1C2=O
222 °C

Please look up its melting point: O=C(O)CCCc1cccc(C(=O)c2ccccc2)c1
71 °C

Please look up its melting point: N#Cc1ccc(OCc2ccccc2)cc1O
130 °C

Please look up its melting point: CN1C(=O)CN=C(c2ccccc2Cl)c2cc([N+](=O)[O-])ccc21
220 °C

Please look up its melting point: CC(C)(C)OC(=O)N[C@H](Cc1ccccc1)C(=O)N1CCC[C@H]1C(=O)NC(Cc1ccc(C#N)cc1)P(=O)(Oc1ccccc1)Oc1ccccc1 (stereo not given in full)
85 to 90 °C

Please look up its melting point: COc1cccc(CC[C@H]2CN(Cc3ccccc3)CCN2Cc2ccccc2)c1
73 to 75 °C

Please look up its melting point: Cn1nc(-c2ccc(C(=O)O)cc2)nc1-c1ccccc1
243 to 244 °C

Please look up its melting point: CCCOc1ccccc1-c1nc2nc(NC)nnc2c(=O)[nH]1
261 to 263 °C

Please look up its melting point: CC1CC2C3CCC4=CC(=O)C=CC4(C)C3=CCC2(C)C1C(=O)CN1CCN(c2cc(NC3CCCC3)nc(NC3CCCC3)n2)CC1 (stereo not given)
180 to 185 °C

Please look up its melting point: CCCc1c(OCCOc2ccccc2C(=O)NCCCCc2cccnc2)ccc(C(C)=O)c1O
77 to 80 °C
